- Test system: JNK3
- Construct: gene MAPK10
- settings: concentration: 1 μM, replicates: in singlicate; n = 1;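 note: KINOMEscan kinase panel screen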
Each entry below carries its recorded %Inh.
test_readout: %Inh (%)

>>> quantitative_readout("Nc1ncc(-c2cn[nH]c2)c2scc(-c3ccc4c(c3)CCN4C(=O)Cc3ccccc3)c12")
2
>>> quantitative_readout("COc1ccc(NC(=O)c2ccoc2)cc1-c1ccc(C(=O)NCC2CC2)cc1")
11
>>> quantitative_readout("NCCC(NC(=O)c1cc(Br)c(-c2ccnc3[nH]ccc23)s1)c1ccccc1.O=C(O)C(F)(F)F.O=C(O)C(F)(F)F (centres unmarked)")
16
>>> quantitative_readout("COc1cccc(NC(=O)NCCNc2ccnc(Nc3ccc(F)cc3)n2)c1")
13
>>> quantitative_readout("Cl.O=C(Nc1ccc(Oc2ccc3[nH]c(NC(=O)c4ccco4)nc3c2)cc1)Nc1cc(C(F)(F)F)ccc1F")
0
>>> quantitative_readout("Cn1cc(-c2ccc3c(c2)CCN3C(=O)Cc2cc(F)cc(F)c2F)c2c(N)ncnc21")
4
>>> quantitative_readout("Cc1cccc(Nc2nc(N[C@H]3CCCC[C@H]3N)ncc2C(N)=O)c1.Cl")
27
>>> quantitative_readout("Nc1ncc(-c2ccc3nccc(-c4ccncc4)c3c2)cc1S(=O)(=O)N1CCCCC1")
29
>>> quantitative_readout("CCOc1nccc(-c2c(-c3ccc(F)cc3)ncn2C2CCNCC2)n1")
90.2
>>> quantitative_readout("COc1cccc(C2=C(Nc3cccc(O)c3)C(=O)NC2=O)c1")
28
>>> quantitative_readout("Cl.N#CCc1ccc(Nc2nccc(Nc3ccc(Oc4ccccc4)cc3)n2)cc1")
23

---

- Test system: EPHA1
- settings: concentration: 1 μM, replicates: in singlicate; n = 1
Item-by-item account of %Inh
test_readout: %Inh (%)

>>> quantitative_readout("COC(=O)Nc1nc2ccc(Oc3ccc(NC(=O)Nc4cc(C(F)(F)F)ccc4F)cc3)cc2[nH]1.Cl")
90.9
>>> quantitative_readout("Cc1ccc(O)cc1Nc1ccnc2cc(-c3ccc(CN4CCCCC4)o3)ccc12")
99.7
>>> quantitative_readout("O=C(Nc1c(F)cccc1F)c1cc(C(=O)c2ccccc2F)c[nH]1")
0
>>> quantitative_readout("COc1ccc(C)c(Nc2ccnc(Nc3ccc(-c4cnc[nH]4)cc3)n2)c1.Cl")
62
>>> quantitative_readout("Cc1ccc(NC(=O)c2ccnc(N3CCCCC3)c2)cc1-c1ccc(C(=O)NCC2CC2)cc1")
0

---

// reported %Inh for each item listed
- System: CSF1R-autoinhibited
- settings: concentration: 1 μM, replicates: in singlicate; n = 1
test_readout: %Inh (%)

>>> quantitative_readout("Cc1ccc(C)c(NC(=O)Nc2ccc(C)c(-c3ccc(C(=O)Nc4ccncc4)cc3)c2)c1 [GSK1398473]")
0
>>> quantitative_readout("COc1ccc(C2=C(Nc3cccc(O)c3)C(=O)NC2=O)cc1 [SB-390766]")
0
>>> quantitative_readout("CN(c1ccc(NC(=O)Nc2cccc(Cl)c2)cc1)c1ccnc(N)n1.Cl [GW830707]")
0
>>> quantitative_readout("Cc1cc(-c2ccnc(Nc3cccc(C#N)c3)n2)cc(C)c1O [GSK1440913]")
13
>>> quantitative_readout("COC(=O)Nc1nc2cc(Oc3ccc(NC(=O)Nc4cccc(SC)c4)cc3)ccc2[nH]1.Cl [GW697999]")
53
>>> quantitative_readout("Nc1ncnc2scc(-c3ccc(NC(=O)Cc4cc(F)ccc4F)cc3)c12.O=C(O)C(F)(F)F [SB-731254-M]")
79
>>> quantitative_readout("COc1cc(Nc2nccc(N3CCC(NS(=O)(=O)c4ccc(NC(C)=O)cc4)CC3)n2)cc(OC)c1OC [GSK1379825]")
7

---

- Test system: JAK1(JH2domain-pseudokinase)
- settings: concentration: 1 μM, replicates: in singlicate; n = 1
test_readout: %Inh

>>> result("Cc1cccc(Nc2nc(N[C@H]3CCCC[C@H]3N)ncc2C(N)=O)c1.Cl")
"91.4%"
>>> result("Fc1cc(Cl)ccc1Nc1ccnc2cc(-c3ccc(CN4CCSCC4)o3)ccc12")
"0%"
>>> result("COC(=O)Nc1nc2cc(Oc3ccc(NC(=O)Nc4cccc(SC)c4)cc3)ccc2[nH]1.Cl")
"0%"
>>> result("CN(c1ccc2c(c1)nc(NCc1ccccc1)n2C)c1ccnc(Nc2ccc(CS(C)(=O)=O)cc2)n1.Cl")
"0%"
>>> result("CN(c1ccc(NC(=O)N2CCN(CCCN3CCOCC3)CC2)cc1)c1ccnc(Nc2ccc(CS(C)(=O)=O)cc2)n1.Cl")
"44%"
>>> result("O=C(Nc1n[nH]c2cc(-c3cccs3)ccc12)C1CC1")
"22%"
>>> result("Cn1cc(-c2ccc3c(c2)CCN3C(=O)Cc2cc(F)cc(C(F)(F)F)c2)c2c(N)ncnc21")
"3%"
>>> result("CN(C)c1ncnc2nc[nH]c12")
"34%"
>>> result("COc1cc(Nc2ccnc3cc(-c4ccncc4)ccc23)cc(OC)c1OC.Cl")
"0%"
>>> result("CCNc1nccc(-c2c(-c3ccc(F)cc3)ncn2C2CCN(C)CC2)n1")
"80%"
>>> result("O=C(Nc1n[nH]c2nc(-c3cccc(O)c3)ccc12)C1CC1")
"21%"
>>> result("Cc1ccc(-c2ccc3occ(-c4ccc(S(C)=O)cc4)c3c2)nn1 (stereo not shown)")
"0%"
>>> result("COC(=O)Nc1nc2ccc(Oc3ccc(NC(=O)Nc4cc(C(F)(F)F)ccc4F)cc3)cc2[nH]1.Cl")
"0%"
>>> result("COc1cc(Nc2nccc(N3CCC(NS(=O)(=O)c4ccc(NC(C)=O)cc4)CC3)n2)cc(OC)c1OC")
"83%"
>>> result("N#Cc1cnc2cc(-c3cnc(CNCCN4CCOCC4)s3)ccc2c1Nc1ccc(Oc2ccccc2)cc1")
"0%"
>>> result("CCn1cnc2c(NCc3ccccc3)ncnc21")
"24%"

---

- System: TGFBR2
- settings: concentration: 1 μM, replicates: in singlicate; n = 1
test_readout: %Inh (%)

>>> quantitative_readout("CCNC(=O)/C=C/c1n[nH]c2cc(Sc3ccccc3C(=O)NC)ccc12")
0
>>> quantitative_readout("CN(c1ccc2c(c1)nc(NCc1ccccc1)n2C)c1ccnc(Nc2ccc(CS(C)(=O)=O)cc2)n1.Cl [GW811603]")
5
>>> quantitative_readout("COc1cc(Nc2nccc(N3CCC(NC(=O)Nc4ccc5c(c4)OCO5)C3)n2)cc(OC)c1OC (stereo not shown) [GSK1379766]")
0
>>> quantitative_readout("Cc1nn2c(=O)cc(N3CCO[C@H](C)C3)nc2n1Cc1cccc(Cl)c1Cl [GSK2373693]")
8
>>> quantitative_readout("CN(c1ccc(NC(=O)N2CCN(CCCN3CCOCC3)CC2)cc1)c1ccnc(Nc2ccc(CS(C)(=O)=O)cc2)n1.Cl [GW830899]")
59
>>> quantitative_readout("Fc1cc(Cl)ccc1Nc1ccnc2cc(-c3ccc(CN4CCSCC4)o3)ccc12 [GW560106]")
71
>>> quantitative_readout("Nc1ncnc2scc(-c3ccc(NC(=O)Cc4cc(F)ccc4F)cc3)c12.O=C(O)C(F)(F)F [SB-731254-M]")
20
>>> quantitative_readout("COc1cccc2c(-c3ccncc3)c(-c3ccc(F)cc3)nn12 [GW468513]")
47
>>> quantitative_readout("NCCC(NC(=O)c1cc(Br)c(-c2ccnc3[nH]ccc23)s1)c1ccccc1.O=C(O)C(F)(F)F.O=C(O)C(F)(F)F (stereo not shown) [GSK1307810]")
0
>>> quantitative_readout("Cl.Cl.NC(CNC(=O)c1cc(Br)c(-c2ccnc3[nH]ccc23)s1)c1ccccc1 (stereo not shown) [GSK1322949]")
32
>>> quantitative_readout("CN(C)c1ncnc2nc[nH]c12 [SKF-31736]")
0
>>> quantitative_readout("O=C(Nc1n[nH]c2cc(-c3cccs3)ccc12)C1CC1 [SB-731284]")
0
>>> quantitative_readout("Cc1ccc(O)cc1Nc1ccnc2ccc(C(C)(C)C)cc12 [GW856805]")
93.2

---

- Test system: CDK9
- settings: concentration: 1 μM, replicates: in singlicate; n = 1
In this section, each of the compounds is paired with its reported %Inh.
test_readout: %Inh

>>> result("CN(C)CCNS(=O)(=O)c1ccc(-c2ccnc3[nH]ccc23)cc1 [GSK977620]")
"0%"
>>> result("N#Cc1cnc2cc(-c3cnc(CNCCN4CCOCC4)s3)ccc2c1Nc1ccc(Oc2ccccc2)cc1 [GW664114]")
"0%"
>>> result("CCNc1nccc(-c2c(-c3ccc(F)cc3)ncn2C2CCN(C)CC2)n1")
"0%"
>>> result("Cl.Cl.NCC(NC(=O)c1cc(-c2cccnc2)c(-c2ccnc3[nH]ccc23)s1)c1ccccc1 (stereo not shown) [GSK1323434]")
"1%"
>>> result("Cc1ccc(-c2ccc3occ(-c4ccc(S(C)=O)cc4)c3c2)nn1 (stereo not shown)")
"0%"
>>> result("CC(C)NCC(Cc1ccccc1)NC(=O)c1cc(Br)c(-c2ccnc3[nH]ccc23)s1.Cl.Cl (stereo not shown) [GSK1383281]")
"0%"
>>> result("Cc1cccc(Nc2nc(NCCN)ncc2C(N)=O)c1 [GSK1292139]")
"0%"
>>> result("O=C(O)C(F)(F)F.O=c1[nH]ccc2nc(N[C@@H]3CCNC3)nc(Nc3cc(Cl)cc(Cl)c3)c12 [GSK2188764]")
"34%"
>>> result("Fc1cc(Cl)ccc1Nc1ccnc2cc(-c3ccc(CN4CCOCC4)o3)ccc12 [GW560109]")
"0%"
>>> result("O=C1NC(=O)C(c2ccccc2Cl)=C1Nc1cccc(Cl)c1 [SB-342409]")
"0%"
>>> result("COc1cccc2c(-c3ccncc3)c(-c3ccc(F)cc3)nn12 [GW468513]")
"0%"
>>> result("Cc1ccc(NC(=O)c2ccc(Cl)c(Cl)c2)cc1-c1ccc(C(=O)Nc2ccncc2)cc1 [GSK1398460]")
"2%"
>>> result("Cn1cc(-c2ccc3c(c2)CCN3C(=O)Cc2cc(F)cc(F)c2F)c2c(N)ncnc21 [GSK2634140]")
"3%"
>>> result("CN(c1ccc(NC(=O)N2CCN(CCCN3CCOCC3)CC2)cc1)c1ccnc(Nc2ccc(CS(C)(=O)=O)cc2)n1.Cl [GW830899]")
"0%"
>>> result("COc1cccc(NC(=O)NCCNc2ccnc(Nc3ccc(F)cc3)n2)c1 [GSK1379879]")
"0%"
>>> result("COc1cc(Nc2nccc(N3CCC(NC(=O)Nc4ccc5c(c4)OCO5)C3)n2)cc(OC)c1OC (stereo not shown) [GSK1379766]")
"0%"
